Molecular target: UniProt P51685
Sequence (P51685 whole entry): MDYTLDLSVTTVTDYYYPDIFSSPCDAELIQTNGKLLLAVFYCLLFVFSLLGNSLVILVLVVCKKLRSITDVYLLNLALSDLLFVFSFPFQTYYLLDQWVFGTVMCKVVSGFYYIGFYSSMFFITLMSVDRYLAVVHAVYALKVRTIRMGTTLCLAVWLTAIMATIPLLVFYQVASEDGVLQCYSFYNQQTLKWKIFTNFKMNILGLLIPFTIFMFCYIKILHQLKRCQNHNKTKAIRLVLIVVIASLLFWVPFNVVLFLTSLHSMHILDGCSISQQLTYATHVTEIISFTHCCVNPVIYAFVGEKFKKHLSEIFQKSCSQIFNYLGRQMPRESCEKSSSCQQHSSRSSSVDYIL
Experiment: Antagonist activity at human CCR8
pIC50: −log10 of the molar value.

[
  {
    "Compound": "COc1ccccc1Oc1ccccc1CN1CCC2(CC1)CCN(C(=O)c1ccncc1)CC2",
    "pIC50": 7.94
  },
  {
    "Compound": "O=C(c1ccncc1)N1CCC2(CCN(Cc3cccc4c3OCC4)CC2)CC1",
    "pIC50": 5.83
  },
  {
    "Compound": "CC1(C)Oc2cccc(CN3CCC4(CC3)CCN(C(=O)c3ccnc(N)c3)CC4)c2O1",
    "pIC50": 8.18
  },
  {
    "Compound": "CC1(C)CCc2cc(CN3CCC4(CC3)CCN(C(=O)c3ccc(N)cn3)CC4)ccc2O1",
    "pIC50": 7.02
  },
  {
    "Compound": "CC1(C)CCc2cc(CN3CCC4(CC3)CCN(C(=O)c3ccncn3)CC4)ccc2O1",
    "pIC50": 5.74
  },
  {
    "Compound": "CCCC1(CC)Cc2c(CN3CCC4(CC3)CCN(C(=O)c3ccc(N)cn3)CC4)cccc2O1 (configuration not stated)",
    "pIC50": 8.62
  },
  {
    "Compound": "O=C(c1ccncn1)N1CCC2(CCN(Cc3ccccc3Oc3ccccc3)CC2)CC1",
    "pIC50": 6.85
  },
  {
    "Compound": "O=C(c1ccncc1)N1CCC2(CCN(Cc3ccccc3OC(F)(F)C(F)F)CC2)CC1",
    "pIC50": 6.28
  },
  {
    "Compound": "CC1(C)Cc2cccc(CN3CCC4(CC3)CCN(C(=O)c3ncccc3N)CC4)c2O1",
    "pIC50": 7.65
  },
  {
    "Compound": "CC(C)COc1ccccc1CN1CCC2(CC1)CCN(C(=O)c1ccncc1)CC2",
    "pIC50": 6.97
  },
  {
    "Compound": "CC1(C)Oc2c(CN3CCC4(CC3)CCN(C(=O)c3ccc(N)cn3)CC4)cccc2C1(F)F",
    "pIC50": 8.58
  },
  {
    "Compound": "C=C(C)COc1ccccc1CN1CCC2(CC1)CCN(C(=O)c1ccncc1)CC2",
    "pIC50": 7.15
  },
  {
    "Compound": "CC1(C)Cc2c(CN3CCC4(CC3)CCN(C(=O)c3ccncc3)CC4)cccc2O1",
    "pIC50": 7.51
  },
  {
    "Compound": "CC1(C)Cc2cccc(CN3CCC4(CC3)CCN(C(=O)c3ccc(N)cn3)CC4)c2O1",
    "pIC50": 8.58
  },
  {
    "Compound": "COc1ccccc1Oc1cccc(CN2CCC3(CC2)CCN(C(=O)c2ccncn2)CC3)c1",
    "pIC50": 8.31
  },
  {
    "Compound": "CC1(C)C=Cc2cccc(CN3CCC4(CC3)CCN(C(=O)c3ccnc(N)c3)CC4)c2O1",
    "pIC50": 8.25
  },
  {
    "Compound": "CC1(C)Cc2c(CN3CCC4(CC3)CCN(C(=O)c3ccnc(N)c3)CC4)cccc2O1",
    "pIC50": 7.65
  },
  {
    "Compound": "CC(C)(C)C1(C)Cc2c(CN3CCC4(CC3)CCN(C(=O)c3ccc(N)cn3)CC4)cccc2O1 (configuration not stated)",
    "pIC50": 8.55
  },
  {
    "Compound": "CC(C)COc1ccccc1CN1CCC2(CC1)CCN(C(=O)c1ccncn1)CC2",
    "pIC50": 6.85
  },
  {
    "Compound": "COc1ccccc1Oc1ccccc1CN1CCC2(CC1)CCN(C(=O)c1ccc[nH]c1=O)CC2",
    "pIC50": 7.26
  },
  {
    "Compound": "COc1ccccc1Oc1ccccc1CN1CCC2(CC1)CCN(C(=O)c1ccncn1)CC2",
    "pIC50": 7.83
  },
  {
    "Compound": "CC1(C)Cc2c(CN3CCC4(CC3)CCN(C(=O)c3ccc(N)cn3)CC4)cccc2O1",
    "pIC50": 8.09
  }
]
